Property: pIC50; scope: individual compounds
- assayTarget: Lysine-specific demethylase 2B (Homo sapiens, UniProt Q8NHM5)
- Sequence (Q8NHM5 whole entry): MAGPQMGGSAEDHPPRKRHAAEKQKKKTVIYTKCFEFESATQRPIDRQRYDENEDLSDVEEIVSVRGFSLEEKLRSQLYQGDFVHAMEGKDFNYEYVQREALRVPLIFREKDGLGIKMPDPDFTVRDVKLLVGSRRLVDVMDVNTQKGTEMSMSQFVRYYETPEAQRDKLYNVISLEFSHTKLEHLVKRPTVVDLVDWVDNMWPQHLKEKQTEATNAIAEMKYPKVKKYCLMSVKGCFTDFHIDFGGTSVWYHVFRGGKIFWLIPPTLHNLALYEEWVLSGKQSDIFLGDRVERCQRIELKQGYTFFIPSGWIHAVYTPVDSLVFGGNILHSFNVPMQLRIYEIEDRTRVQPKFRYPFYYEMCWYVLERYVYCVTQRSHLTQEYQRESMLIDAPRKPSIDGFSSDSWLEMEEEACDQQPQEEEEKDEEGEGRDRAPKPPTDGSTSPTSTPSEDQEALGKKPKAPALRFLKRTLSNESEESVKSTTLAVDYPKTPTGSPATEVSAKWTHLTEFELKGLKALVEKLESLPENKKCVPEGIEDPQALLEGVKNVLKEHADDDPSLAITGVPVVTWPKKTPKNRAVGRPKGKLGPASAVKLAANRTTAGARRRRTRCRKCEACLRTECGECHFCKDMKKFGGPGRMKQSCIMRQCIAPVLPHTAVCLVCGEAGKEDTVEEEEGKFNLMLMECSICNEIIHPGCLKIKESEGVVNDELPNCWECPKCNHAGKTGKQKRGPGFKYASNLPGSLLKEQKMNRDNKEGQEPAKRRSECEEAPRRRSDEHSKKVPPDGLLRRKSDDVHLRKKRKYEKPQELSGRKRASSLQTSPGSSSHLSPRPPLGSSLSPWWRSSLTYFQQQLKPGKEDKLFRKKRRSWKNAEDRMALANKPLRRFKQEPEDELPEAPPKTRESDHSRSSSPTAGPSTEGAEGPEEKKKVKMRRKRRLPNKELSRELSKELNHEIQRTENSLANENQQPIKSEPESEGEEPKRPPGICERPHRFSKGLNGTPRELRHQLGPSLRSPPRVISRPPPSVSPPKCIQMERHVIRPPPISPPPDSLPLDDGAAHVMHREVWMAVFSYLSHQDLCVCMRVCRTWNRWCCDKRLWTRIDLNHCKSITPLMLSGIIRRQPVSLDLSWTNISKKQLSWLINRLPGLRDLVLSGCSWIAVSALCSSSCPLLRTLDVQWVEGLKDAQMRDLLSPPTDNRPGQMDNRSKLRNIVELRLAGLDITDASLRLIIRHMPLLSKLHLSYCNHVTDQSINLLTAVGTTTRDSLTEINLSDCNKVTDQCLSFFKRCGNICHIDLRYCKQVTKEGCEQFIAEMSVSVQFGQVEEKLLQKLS
Scale: negative log10 of molar concentration, which is what pIC50 denotes.

Answered cases to consult:
{"columns": ["structureSmilesString", "assayValue"],
 "data": [
  ["C=CC(=O)N1CCC(c2cccc(OCC)c2)(c2nnn[nH]2)CC1", 5.03],
  ["C=CC(=O)N1CCC(C(=O)O)(c2ccc(OC)cc2)CC1", 4.28],
  ["C=CC(=O)N1CCC(C(=O)O)(c2ccc(Cl)cc2)CC1", 4.28],
  ["C=CC(=O)N1CCC(c2ccc(OC)cc2)(c2nnn[nH]2)CC1", 4.49],
  ["C=CC(=O)N1CCC(C(=O)O)(c2ccc(OCC)cc2)CC1", 5.44]
]}

Which pIC50 value is on record for C=CC(=O)N1CCC(C(=O)NS(=O)(=O)c2ccccc2)(c2ccccc2)CC1 ?
4.46

Which pIC50 value is on record for C=CC(=O)N1CCC(C(=O)O)(c2ccccc2)CC1 ?
5.19
